# Test system: Wolbachia pipientis
# Test method notes: Anti-Wolbachia Cell-Based Screen
# Assay type: functional
# Set-up: scale not given: in the data most compounds retested in dose-response had high values
# Experimental conditions: 5 µM
The campaign covered roughly 48,000 compounds. About 13,000 (27%) showed an effect of 50% or more. The list shows a part of the results.
Attribute: Percent Effect
Enter your answer as a number in %; do not include the unit.

Known results for compounds:
> print(dat)
                                   compound  measurement.units  value.observed
1       CSc1ccsc1C(=O)NS(=O)(=O)c1ccc(F)cc1                  %          -34.42
2         COCC1(CNC(=O)Nc2cc(F)ccc2OC)CCCC1                  %          -0.947
3  COc1ccc(N2CCN(C(=O)OC(C)(C)C)C(C(=O)O)C2)cc1 (centres undefined)                  %           126.2
4                COCCCNS(=O)(=O)c1cc(C)sc1C                  %           1.598
5  COc1ccc(N2CCN(C(=O)Cn3nc(C)c(C)c3C)C(C)C2)cc1 (centres undefined)                  %           -0.23

INPUT: Any idea what its Percent Effect is? The compound is COC(=O)N1CCCCC1C(=O)N1CCN(c2cccnc2)CC1 (centres undefined)
OUTPUT: -31.63

INPUT: One more compound: Cc1noc(C)c1CN(C)CC1CC(C2CCCCC2)=NO1 (centres undefined)
OUTPUT: 7.193

INPUT: One more compound: CCN1C(=O)C2(CCCCC2)NC1c1cc(C#N)n(C)c1C (centres undefined)
OUTPUT: 8.458

INPUT: One more compound: Cc1ccc(C(=O)N2C[C@@H]3CCN(c4cccnc4)C[C@@H]3C2)cn1.O=C(O)C(F)(F)F
OUTPUT: 4.1

INPUT: One more compound: Cc1ccc(N2N=C(C(=O)O)S(=O)(=O)c3cccnc32)cc1
OUTPUT: 88.09

INPUT: One more compound: CNS(=O)(=O)c1cccc(C(C)NCc2ccccc2)c1 (centres undefined)
OUTPUT: -4.826

INPUT: One more compound: Cc1ccc(N2N=C(C(N)=O)S(=O)(=O)c3cccnc32)cc1
OUTPUT: 70.93

INPUT: One more compound: CCCNC(=O)C(C)Nc1ccc(OCC)cc1 (centres undefined) [PROPETAMIDE]
OUTPUT: -10.93

INPUT: One more compound: Cc1nc(C)c(S(=O)(=O)NC(=O)c2cccs2)s1
OUTPUT: 102.2

INPUT: One more compound: Cc1ncsc1CCN1CCN(C(=O)c2ccc(=O)[nH]c2)CC1
OUTPUT: 12.93

INPUT: One more compound: Cc1ccc(-n2nnc(C(=O)NCC3CCCCC3)n2)cc1
OUTPUT: 3.646

INPUT: One more compound: Cc1nc(C)c(S(=O)(=O)NC(=O)c2sccc2C)s1
OUTPUT: 101.5

INPUT: One more compound: CC(c1cccc(S(N)(=O)=O)c1)N(C)CCCOc1ccccc1 (centres undefined)
OUTPUT: 114.5

INPUT: One more compound: Cc1ccc(OCCCC(=O)NC(C)c2ccc(S(N)(=O)=O)cc2)cc1 (centres undefined)
OUTPUT: 31.07

INPUT: One more compound: Cc1ccc(N2CCN(C(=O)CCC(F)(F)F)C(C)C2)cc1 (centres undefined)
OUTPUT: 17.59

INPUT: One more compound: CC(NC(=O)c1cccs1)C(=O)NS(=O)(=O)c1cccc(C#N)c1 (centres undefined)
OUTPUT: 3.018

INPUT: One more compound: Cc1nc2c(c(N3CC=CC3)n1)CCN(c1ncccc1C(N)=O)CC2
OUTPUT: -4.106

INPUT: One more compound: COC(=O)c1ccc(N2CCN(C(=O)C(C)C)C(C)C2)cc1 (centres undefined)
OUTPUT: 1.031

INPUT: One more compound: CN1N=C(C(=O)N2CCCCC2)S(=O)(=O)c2ccccc21
OUTPUT: 9.429

###

# System: Wolbachia pipientis
# Test method notes: Anti-Wolbachia Cell-Based Screen
# Assay type: functional
# Design: scale not given: in the data most compounds retested in dose-response had high values
# Experimental conditions: 5 µM
Hit rate of the full screen: of about 48,000 compounds, about 13,000 (27%) showed an effect of 50% or more. The list shows a part of the results.
Measurement type: Percent Effect (%)
Enter your answer as a number in %; do not include the unit.

Known results for compounds:
> print(dat)
                                   compound  value.observed
1  CS(=O)(=O)CCC(=O)NC1CC(c2ccccc2Cl)C1 (stereo not given)          -3.689
2  O=S(=O)(C1CC1)N1CCC2(COCc3cnc(N4CCOCC4)nc32)C1 (stereo not given)         -0.8991
3  c1ccc(-c2ncc3c(n2)C2(CCN(c4ncccn4)C2)COC3)cc1 (stereo not given)         -0.2326
4  O=S(=O)(C1CC1)N1CCC2(COCc3cnc(-c4cccnc4)nc32)C1 (stereo not given)           112.6
5  CCS(=O)(=O)N1CCC2(CC1)CN(CC1CCOC1)c1ccccc12.O=C(O)C(F)(F)F (stereo not given)           101.7

INPUT: API: value(readout=Percent Effect, system=Wolbachia pipientis) for record O=C(C1CN(CC2CC2)CC12CCOCC2)N1CCOCC1.O=C(O)C(F)(F)F (stereo not given)
OUTPUT: 0.7969

INPUT: One more compound: CS(=O)(=O)N1CCC2(COCc3cnc(-c4ccccc4)nc32)C1 (stereo not given)
OUTPUT: 3.211

INPUT: One more compound: CN1CC[C@H](c2nnc(-c3cncn3C)o2)C1
OUTPUT: -6.33

INPUT: One more compound: O=C(O)C(F)(F)F.c1cnc(N2CC3(CCN(C4CCOCC4)CC3)c3ccccc32)nc1
OUTPUT: 5.791

INPUT: One more compound: CN(C)S(=O)(=O)N1CCC2(COCc3cnc(-c4ccccc4)nc32)C1 (stereo not given)
OUTPUT: 7.187

###

# System: Wolbachia pipientis
# Test method notes: Anti-Wolbachia Cell-Based Screen
# Type: functional
# Design: scale not given: in the data most compounds retested in dose-response had high values
# Experimental conditions: 5 µM
In all, about 48,000 compounds went through this assay and about 13,000 (27%) showed an effect of 50% or more. The list shows a part of the results.
Measurement type: Percent Effect (%)
Enter your answer as a number in %; do not include the unit.

Known results for compounds:
> print(dat)
                                   compound  measurement.type  value.observed
1  Cc1cnc(C(=O)N2CCC(C(=O)c3cc(F)ccc3F)CC2)cn1    Percent Effect             134
2  COCCCNC1CCCN(c2ccc(C)nn2)C1 (configuration not stated)    Percent Effect           22.77
3  Cc1ccc(N2CCCC(NCCS(C)(=O)=O)C2)nn1 (configuration not stated)    Percent Effect           2.432
4  Cc1ccc(N2CCCC(NCC(=O)Nc3cc(C)nn3C)C2)nn1 (configuration not stated)    Percent Effect           95.11
5                NCCCn1nc(C(F)(F)F)c2c1CCC2    Percent Effect           77.67

Now for another entry.
INPUT: Any idea what its Percent Effect is? The compound is CC(=O)NCCNC(=O)CNC1CCCN(c2ccc(C)nn2)C1 (configuration not stated)
OUTPUT: 88.86

###

# Test system: Wolbachia pipientis
# Test method notes: Anti-Wolbachia Cell-Based Screen
# Format: functional
# Set-up: scale not given: in the data most compounds retested in dose-response had high values
# Experimental conditions: 5 µM
Among all 48,000 compounds or so, about 13,000 (27%) showed an effect of 50% or more. This is one part of the list.
Measurement type: Percent Effect (%)
Enter your answer as a number in %; do not include the unit.

Known results for molecules:
> print(dat)
                                   molecule  value.observed
1  O=C1CO[C@@H]2CN(S(=O)(=O)c3ccccc3)C[C@H]2N1CC1CC1          -2.601
2  COC(=O)C(CNC(=O)Nc1nncs1)Cc1ccc(F)cc1 (stereo unspecified)           5.054
3    Cn1ccc(C(=O)NCc2cccc(Cn3ccnc3)c2)cc1=O         0.02977
4              NC(=O)CS(=O)(=O)Cc1ccc(F)cc1           3.461

Now for another entry.
INPUT: Any idea what its Percent Effect is? The molecule is Cn1ccc(C(=O)NCc2ccc(CN3CCCC3)cc2)cc1=O
OUTPUT: 100.9
